target_system: T1, Cbf5p;Nop10p;Gar1p;Nhp2p (Saccharomyces cerevisiae;Saccharomyces …, UniProt P33322;Q6Q547;P28007;P32495 1-483;1-58;1-205;1-156, |||)
T1 sequence 1: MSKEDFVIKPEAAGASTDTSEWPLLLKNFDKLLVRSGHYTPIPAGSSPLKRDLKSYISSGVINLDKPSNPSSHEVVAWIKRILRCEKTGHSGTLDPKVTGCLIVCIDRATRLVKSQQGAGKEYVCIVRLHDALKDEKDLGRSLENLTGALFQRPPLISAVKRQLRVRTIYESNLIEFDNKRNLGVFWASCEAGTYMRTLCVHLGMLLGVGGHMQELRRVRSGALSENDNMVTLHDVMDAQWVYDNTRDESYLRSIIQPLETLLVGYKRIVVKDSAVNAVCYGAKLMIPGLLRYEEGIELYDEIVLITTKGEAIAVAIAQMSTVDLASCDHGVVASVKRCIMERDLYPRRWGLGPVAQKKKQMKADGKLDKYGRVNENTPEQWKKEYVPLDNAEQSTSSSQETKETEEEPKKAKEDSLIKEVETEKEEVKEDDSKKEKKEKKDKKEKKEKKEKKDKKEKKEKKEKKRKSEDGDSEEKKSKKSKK
T1 sequence 2: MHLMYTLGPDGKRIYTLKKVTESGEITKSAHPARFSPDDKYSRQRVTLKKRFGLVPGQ
T1 sequence 3: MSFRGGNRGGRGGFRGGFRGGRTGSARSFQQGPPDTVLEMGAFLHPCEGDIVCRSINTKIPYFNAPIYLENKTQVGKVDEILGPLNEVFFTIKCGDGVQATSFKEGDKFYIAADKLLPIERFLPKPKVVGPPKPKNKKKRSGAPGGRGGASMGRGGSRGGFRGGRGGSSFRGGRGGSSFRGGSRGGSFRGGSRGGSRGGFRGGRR
T1 sequence 4: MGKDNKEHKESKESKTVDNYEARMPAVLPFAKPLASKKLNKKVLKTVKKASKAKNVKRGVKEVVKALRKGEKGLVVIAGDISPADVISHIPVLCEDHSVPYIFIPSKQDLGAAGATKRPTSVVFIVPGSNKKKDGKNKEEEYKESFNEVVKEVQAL
assay_method_text: filter binding
quantity_name: Kd (nM)
Numbers only here, please. The scale is nM.

Qu. Answer with the recorded Kd of GGGGACAACUGGCUUGUGGCAGCCA (mixed) [snR34 guide + 5' substrate RNA] only.
Ans. 53
